Reported RF A2780/cp70 (IC50 in resistant cell line/IC50 in parent cell line) is given for each of the following compounds.
# System: A2780/cp70
# method: Inhibition of cell growth, cisplatin resistant A2780/cp70 cell line
# Assay type: cell-based, human
# experimental parameters: A2780/cp70 vs A2780
measured attribute: RF A2780/cp70 (IC50 in resistant cell line/IC50 in parent cell line)

CN(C)CCNc1ccc(NCCN2CCCC2CCl)c2c1C(=O)c1c(O)ccc(O)c1C2=O (stereo not drawn) [CAQ176M]
2.7
CN(C)CCNc1ccc(NCCN2CCCCC2CCl)c2c1C(=O)c1c(O)ccc(O)c1C2=O (stereo not drawn) [CAQ183M]
1.7
O=C1c2c(O)ccc(O)c2C(=O)c2c(NCCN3CCCC3CCl)ccc(NCCN3CCCC3CCl)c21 (stereo not drawn) [CAQ177M]
1
